target.of.assay: Integrin alpha-IIb/beta-3 (Homo sapiens, UniProt P05106+P08514)
Sequence (P05106 27-788 limits assumed): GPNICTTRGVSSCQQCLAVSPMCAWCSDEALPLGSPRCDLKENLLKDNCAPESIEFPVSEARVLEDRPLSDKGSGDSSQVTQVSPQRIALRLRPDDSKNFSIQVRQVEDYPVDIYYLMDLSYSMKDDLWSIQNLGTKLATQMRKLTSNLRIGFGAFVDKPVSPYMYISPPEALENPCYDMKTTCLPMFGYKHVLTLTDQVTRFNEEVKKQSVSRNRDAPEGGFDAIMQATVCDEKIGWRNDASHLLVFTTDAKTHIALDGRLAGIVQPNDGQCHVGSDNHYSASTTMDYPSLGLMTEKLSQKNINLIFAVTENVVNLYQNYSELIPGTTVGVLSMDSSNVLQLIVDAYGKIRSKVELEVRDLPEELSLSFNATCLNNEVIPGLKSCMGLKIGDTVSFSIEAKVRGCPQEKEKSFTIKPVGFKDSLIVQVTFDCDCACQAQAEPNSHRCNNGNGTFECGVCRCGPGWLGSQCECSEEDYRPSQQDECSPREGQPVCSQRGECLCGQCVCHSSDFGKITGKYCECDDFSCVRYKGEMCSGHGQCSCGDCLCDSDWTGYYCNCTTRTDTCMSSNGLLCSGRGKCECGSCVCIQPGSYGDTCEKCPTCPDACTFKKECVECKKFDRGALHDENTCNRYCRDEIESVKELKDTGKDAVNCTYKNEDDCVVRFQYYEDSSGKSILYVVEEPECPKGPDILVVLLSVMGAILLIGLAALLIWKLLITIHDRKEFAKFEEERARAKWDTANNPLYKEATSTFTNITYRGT
Sequence (P08514 32-887 limits assumed): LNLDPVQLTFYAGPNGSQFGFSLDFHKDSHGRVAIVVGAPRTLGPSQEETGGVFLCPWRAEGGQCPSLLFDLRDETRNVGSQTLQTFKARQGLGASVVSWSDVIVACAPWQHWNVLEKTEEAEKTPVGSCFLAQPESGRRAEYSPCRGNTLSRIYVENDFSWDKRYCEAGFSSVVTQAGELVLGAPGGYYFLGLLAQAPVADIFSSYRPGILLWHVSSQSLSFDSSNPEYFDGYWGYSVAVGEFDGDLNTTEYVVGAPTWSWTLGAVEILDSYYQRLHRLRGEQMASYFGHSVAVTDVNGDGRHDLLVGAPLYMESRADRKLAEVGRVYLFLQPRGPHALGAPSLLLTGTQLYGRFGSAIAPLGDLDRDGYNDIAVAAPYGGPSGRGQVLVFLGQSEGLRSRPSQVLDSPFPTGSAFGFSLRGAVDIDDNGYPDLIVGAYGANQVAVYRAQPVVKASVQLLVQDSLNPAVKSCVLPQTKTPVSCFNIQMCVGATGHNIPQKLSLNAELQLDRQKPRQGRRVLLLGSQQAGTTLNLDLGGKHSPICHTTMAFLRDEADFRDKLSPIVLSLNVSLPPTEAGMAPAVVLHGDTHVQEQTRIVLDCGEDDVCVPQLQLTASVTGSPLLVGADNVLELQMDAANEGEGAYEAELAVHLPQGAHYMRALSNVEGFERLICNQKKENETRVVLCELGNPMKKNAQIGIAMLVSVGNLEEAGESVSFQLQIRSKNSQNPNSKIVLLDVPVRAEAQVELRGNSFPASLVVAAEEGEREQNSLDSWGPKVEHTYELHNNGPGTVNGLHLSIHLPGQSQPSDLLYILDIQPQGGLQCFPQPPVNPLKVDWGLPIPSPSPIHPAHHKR
Sequence (P08514 891-1039 limits assumed): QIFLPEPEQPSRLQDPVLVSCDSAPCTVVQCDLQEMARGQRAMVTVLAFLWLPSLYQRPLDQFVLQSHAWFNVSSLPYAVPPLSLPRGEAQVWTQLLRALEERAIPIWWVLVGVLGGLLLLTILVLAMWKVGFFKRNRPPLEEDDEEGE
method: Inhibition of biotinylated fibrinogen binding to immobilized integrin GPIIb/IIIa
Assay type: protein-complex assay
pIC50: −log10 of the molar value.
// label = Criterion met if pIC50 is not less than 9, otherwise Criterion not met

[[record]]
compound = "O=C(O)C[C@H](NC(=O)C1CCCn2c(/C=C/C3CCNCC3)nnc21)c1cccnc1 (stereo partly specified)"
target_of_assay = "Integrin alpha-IIb/beta-3 (Homo sapiens, UniProt P05106+P08514)"
category_label = "Criterion met"

[[record]]
compound = "O=C(O)C[C@H](NC(=O)[C@@H]1CCCN(C(=O)CCC2CCNCC2)C1)c1cccnc1 [ELAROFIBAN]"
target_of_assay = "Integrin alpha-IIb/beta-3 (Homo sapiens, UniProt P05106+P08514)"
category_label = "Criterion met"

[[record]]
compound = "O=C(N[C@@H](CNC(=O)[C@@H]1CCCN(C(=O)CCC2CCNCC2)C1)C(=O)O)OCc1ccccc1"
target_of_assay = "Integrin alpha-IIb/beta-3 (Homo sapiens, UniProt P05106+P08514)"
category_label = "Criterion met"

[[record]]
compound = "O=C(O)C[C@H](NC(=O)c1cccn2c(CCC3CCNCC3)nnc12)c1cccnc1"
target_of_assay = "Integrin alpha-IIb/beta-3 (Homo sapiens, UniProt P05106+P08514)"
category_label = "Criterion not met"

[[record]]
compound = "O=C(N[C@@H](CNC(=O)C1CCCn2c(/C=C/C3CCNCC3)nnc21)C(=O)O)OCc1ccccc1 (stereo partly specified)"
target_of_assay = "Integrin alpha-IIb/beta-3 (Homo sapiens, UniProt P05106+P08514)"
category_label = "Criterion met"

[[record]]
compound = "O=C(O)C[C@H](NC(=O)C1CCCn2c(CCC3CCNCC3)nnc21)c1cccnc1 (stereo partly specified)"
target_of_assay = "Integrin alpha-IIb/beta-3 (Homo sapiens, UniProt P05106+P08514)"
category_label = "Criterion met"

